Reference source for all entries: patent US6413971B1

Counter-ions that a name gives are not always drawn.
Reported values of melting point for individual entries
VALUE KIND: melting point

- COMPOUND: "Cc1cc2c(N3CCc4c(Br)ccc(C)c43)ncnc2cn1.Cl"
  VALUE KIND: "melting point"
  VALUE MEASURED: "232 to 244 °C"
- COMPOUND: "Cc1cc2c(N3CCc4ccc(Cl)cc43)ncnc2cn1 [Example 16]"
  VALUE KIND: "melting point"
  VALUE MEASURED: "232 to 234 °C"
- COMPOUND: "C#Cc1cccc(Nc2ncnc3c2ccn3CCOCCOC)c1 [Example 13]"
  VALUE KIND: "melting point"
  VALUE MEASURED: "240 to 241 °C"
- COMPOUND: "C#Cc1cccc(Nc2ncnc3cnccc23)c1 (as salt: hydrochloride) [Example 24]"
  VALUE KIND: "melting point"
  VALUE MEASURED: "233 to 235 °C"
- COMPOUND: "Oc1cc2ncnc(N3CCc4ccc(Cl)cc43)c2[nH]1 [Example 10]"
  VALUE KIND: "melting point"
  VALUE MEASURED: "250 °C (dec.)"

* * *

Counter-ions that a name gives are not always drawn.
Reported values of melting point for individual entries

- COMPOUND: "Cc1cc2c(N3CCc4ccc(Br)c(C)c43)ncnc2cn1.Cl"
  melting point: "212 to 229 °C"
- COMPOUND: "Clc1ccc2c(c1)N(c1ncnc3cnccc13)CC2 [Example 5]"
  melting point: "194 to 196 °C"
- COMPOUND: "c1cc2c(Nc3ccc4sccc4c3)ncnc2cn1 (as salt: hydrochloride) [Example 25]"
  melting point: "280 to 282 °C"
- COMPOUND: "Cc1cc2c(N3CCc4cc(F)c(Br)cc43)ncnc2cn1.Cl"
  melting point: "262 to 264 °C"
- COMPOUND: "C#Cc1cccc(Nc2ncnc3[nH]cc(-c4cccs4)c23)c1 [Example 27]"
  melting point: "230 to 232 °C"
